B1: NETO1 (parent)
chain: KTSLLDQLTNTSGTVIGVTSCIVI

variants of: B1; assay: protein stability index of a GFP-peptide fusion (GPS, HEK-293T) (PSI 1-6); higher = more stable; conditions: c terminus: a fixed tail appended;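 further: lentivirally expressed fusions sorted by FACS into six bins by GFP to DsRed ratio, PSI derived from sequencing read proportions per bin multiplied by bin number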
Parameter protein stability index: see the listing below.
The response must contain the number and no unit.

Using the record for `T14N` , report its protein stability index. 2.98

Using the record for `L5S` , report its protein stability index. 3.07
